Every entry's value here was drawn from ChEMBL document CHEMBL1177762.

systemTested: C-C chemokine receptor type 5 (Homo sapiens)
Sequence (P51681 whole entry): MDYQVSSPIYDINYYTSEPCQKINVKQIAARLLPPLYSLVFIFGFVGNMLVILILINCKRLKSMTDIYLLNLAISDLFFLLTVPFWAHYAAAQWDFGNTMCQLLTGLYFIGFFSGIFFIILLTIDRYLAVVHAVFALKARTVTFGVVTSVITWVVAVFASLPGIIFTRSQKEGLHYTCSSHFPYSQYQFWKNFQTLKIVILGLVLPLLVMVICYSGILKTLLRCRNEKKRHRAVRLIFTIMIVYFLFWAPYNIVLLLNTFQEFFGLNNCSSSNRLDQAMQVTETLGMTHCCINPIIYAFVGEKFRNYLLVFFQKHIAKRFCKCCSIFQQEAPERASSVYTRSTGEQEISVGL
assayRemarks: Antagonist activity at CCR5
reportedEndpoint: pIC50
FYI, pIC50 means -log10 of a concentration in mol per litre.

Challenge: Query for C-C chemokine receptor type 5 (Homo sapiens): what pIC50 does the record show for O=C(O)c1ccccc1Oc1ccc(Cl)cc1NS(=O)(=O)c1ccc(Cl)c(Cl)c1 ?
Response given: 6.20

Continue with the molecule presented below.
Challenge: Query for C-C chemokine receptor type 5 (Homo sapiens): what pIC50 does the record show for O=C(O)c1ccccc1Oc1ncc(Cl)cc1NS(=O)(=O)c1ccc(Cl)c(Cl)c1 ?
Response given: 6.60
